B1: library; numbered along this chain (parent)
chain: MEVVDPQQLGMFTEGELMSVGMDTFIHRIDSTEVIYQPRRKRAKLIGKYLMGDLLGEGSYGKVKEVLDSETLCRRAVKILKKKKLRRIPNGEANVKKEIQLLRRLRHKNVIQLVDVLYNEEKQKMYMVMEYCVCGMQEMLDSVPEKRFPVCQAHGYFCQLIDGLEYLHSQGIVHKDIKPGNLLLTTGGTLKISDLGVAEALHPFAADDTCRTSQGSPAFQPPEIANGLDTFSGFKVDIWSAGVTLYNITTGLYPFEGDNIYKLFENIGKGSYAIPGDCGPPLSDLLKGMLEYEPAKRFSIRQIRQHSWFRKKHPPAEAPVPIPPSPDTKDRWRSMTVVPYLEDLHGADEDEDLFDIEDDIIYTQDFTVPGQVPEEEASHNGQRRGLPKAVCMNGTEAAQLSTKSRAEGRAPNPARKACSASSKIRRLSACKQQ

Variants of: B1
Assay: STK11 functional score (HeLa growth suppression), rescaled enrichment; synonymous median = 1, nonsense median = 0 (normalised score)
Conditions: with HeLa; variant type: missense
Could you please mark Satisfied for values of STK11 functional score below 0.8 and Not satisfied for values at or above it?

Quick check: does S142D have STK11 functional score under 0.8?
Not satisfied

Is it true that STK11 functional score reported for M22S is less than 0.8?
Not satisfied

Threshold test, STK11 functional score < 0.8: R75F
Not satisfied

Quick check: does C391S have STK11 functional score under 0.8?
Satisfied

A record lists S142C . Is its STK11 functional score below 0.8?
Not satisfied

State whether 0.8 exceeds STK11 functional score recorded for K269C .
Not satisfied

Hello, is STK11 functional score of the following variant strictly smaller than 0.8? C151Y
Not satisfied

Would you kindly verify if STK11 functional score of I177D is strictly less than 0.8?
Satisfied

A record lists R383L . Is its STK11 functional score below 0.8?
Not satisfied

Confirm or reject: STK11 functional score of R405I lies strictly below 0.8
Not satisfied

Regarding N247D , kindly confirm whether its STK11 functional score is beneath 0.8.
Not satisfied

Confirm or reject: STK11 functional score of V243D lies strictly below 0.8
Satisfied

API: query returns whether the variant falls strictly under 0.8 in STK11 functional score. Query: A406C
Not satisfied

Quick check: STK11 functional score of I322G under 0.8?
Satisfied

Please let me know if I177W shows STK11 functional score below 0.8.
Satisfied

Does the reported STK11 functional score of the following variant sit strictly below 0.8? D30S
Not satisfied

Quick check: does V20T have STK11 functional score under 0.8?
Not satisfied

Criterion: STK11 functional score strictly below 0.8. Is it met by A410E ?
Not satisfied

In the record for M136L , is STK11 functional score less than 0.8?
Not satisfied

Could you please tell me whether STK11 functional score recorded for T244F is less than 0.8?
Satisfied

Say whether its STK11 functional score is strictly beneath 0.8. Entry: I79G
Satisfied

Lab note: confirm whether the reported STK11 functional score for this variant is below 0.8, equality not counting. variant: F148D
Satisfied

Values compiled from the supplement of paper PMC12338614.
